Measured absorption ratio (ELISA) of individual entries
- tgt: T1, mouse P2X7 (mouse, UniProt Q9Z1M0 1-595)
- T1 construct: on transfected CHO or Hek293 cells, or endogenous on Yac-1 cells; also called mP2X7; mouse purinoceptor P2X7
- T1 sequence: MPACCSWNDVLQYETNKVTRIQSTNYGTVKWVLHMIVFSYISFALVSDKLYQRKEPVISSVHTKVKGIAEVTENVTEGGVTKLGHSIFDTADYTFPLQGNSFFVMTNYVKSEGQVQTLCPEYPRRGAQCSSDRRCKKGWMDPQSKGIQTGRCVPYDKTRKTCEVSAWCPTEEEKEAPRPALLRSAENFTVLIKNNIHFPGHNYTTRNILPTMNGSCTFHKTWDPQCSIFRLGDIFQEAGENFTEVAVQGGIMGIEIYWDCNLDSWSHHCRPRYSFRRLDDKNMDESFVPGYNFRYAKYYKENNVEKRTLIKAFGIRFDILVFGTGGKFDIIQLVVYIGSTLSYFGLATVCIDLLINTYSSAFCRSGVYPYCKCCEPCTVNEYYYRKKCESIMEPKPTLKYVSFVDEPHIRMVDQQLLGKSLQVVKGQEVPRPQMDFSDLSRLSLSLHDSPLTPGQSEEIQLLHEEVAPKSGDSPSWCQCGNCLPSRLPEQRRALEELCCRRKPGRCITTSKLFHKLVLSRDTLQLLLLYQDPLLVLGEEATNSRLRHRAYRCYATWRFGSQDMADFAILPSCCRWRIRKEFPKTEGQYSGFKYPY
- assay.remarks: phage ELISA, mP2X7-CHO vs control CHO cells
readout.kind: absorption ratio (ELISA) (ratio)

binder="P2X7PMP8G11 (VHH, family 5, 1; on phage or c-myc/His6-tagged in assays; also called 8011) VHH: AVQLVESGGGLVQAGGSLRLSCAASGNFFRVNTMAWYRQAPGKQRELVADITRGDRTNYADTVNGRFTISRDNVRNTVYLQMNGLRPEDTAAYYCYAVIELGVLEPRDYWGQGTQVTVSS" result_value=26
binder="P2X7PMP20B10 (VHH, family 2; on phage or c-myc/His6-tagged in assays) VHH: EVQLVESGGGLVQTGGSLRLSCAASGFTLDDYAIAWFRQAPGKEREGVSILSSIGKTFYADSVKDRFSITADGAKTTVFLQMNSLKPEDTAIYYCVAGHFVYNDGAISLNTARGSGFWGQGTQVTVSS" result_value=8
binder="P2X7PMP8H10 (VHH, family 5, 3; on phage or c-myc/His6-tagged in assays) VHH: EVQLVESGGGLVQAGGSLRLSCAASGSFFRVNNMAWYRQGPGKQRELVADITRGDRTNYADSVNGRFTISRDNVRNTVYLQMNGLKPEDTAVYYCYATIELGVLEPRDYWGQGTQVTVSS" result_value=19
binder="P2X7PMP18A7 (VHH, family 25; on phage or c-myc/His6-tagged in assays) VHH: EVQLVESGGDLVQPGGSLRLSCVASGFALEEHAIGWFRQAPGKEREGVSLSSYVGAVYYATSVKGRFTISRDNAKNTVYLQMNSLKPEDTAVYYCARGHFTYDDGRISIRSVDHWGKGTLVTVSS" result_value=14
binder="P2X7PMP8H4 (VHH, family 5, 3; on phage or c-myc/His6-tagged in assays) VHH: EVQLVESGGGLVQAGGSLRLSCAASGSFFRVNNMAWYRQGPGKQRELVADITRGDRTNYADSVNGRFTISRDNVRNTVYLQMDGLKPEDTAVYYCYATIELGVLVPRDYWGQGTQVTVSS" result_value=27
binder="P2X7PMP8A11 (VHH, family 5, 2; on phage or c-myc/His6-tagged in assays) VHH: EVQLVESGGGLVQAGGSLRLSCAASGSFFRVNNMAWYRQAPGKQRELVADITRGDRTNYADSVNGRFTISRDNVRNTVYLQMDGLKPEDTAVYYCYARIELGVLVPRDYWGQGTQVTVSS" result_value=11
binder="P2X7PMP20C9 (VHH, family 2; on phage or c-myc/His6-tagged in assays) VHH: EVQLVESGGGLVQTGGSLRLSCAASGFTLDDYAIAWFRQAPGKEREGVSILSSIGKTFYADSAKDRFSITADGAKTTVFLQMNSLKPEDTAIYYCVAGHFVYNDGAISLNTARGSGFWGQGTQVTVSS" result_value=11
binder="P2X7PMP14F10 (VHH, family 5, 2; on phage or c-myc/His6-tagged in assays) VHH: EVQLVESGGGLVQAGGSLRLLCAASGSFFRVNNMAWYRQAPGKQRELVADITRGDRTNYADSVNGRFTISRDNVRNTVYLQMNGLKPEDTAVYSCYARIELGILEPRDYWGQGTQVTVSS" result_value=19
binder="P2X7PMP19C2 (VHH, family 15; on phage or c-myc/His6-tagged in assays) VHH: EVQLVKSGGGLVQAGGSLRLSCAASPGTFSSFNMGWFRQTPGKEREFVAATSWSDISTYYADSVKGRFTISRDNAKNTVTLEMNSLKPEDTAVYYCAAGYYRGGYLGYRLTLEGSYDVWGQGTQVTVSS" result_value=18
binder="P2X7PMP14G11 (VHH, family 5, 3; on phage or c-myc/His6-tagged in assays) VHH: EVQLVESGGGLVKPGGSLRLSCAASGSFFRVNNMAWYRQGPGKQRELVADITRGDRTNYADSVNGRFTISRDNVRNTVYLQMNGLKPEDTAVYYCYATIELGVLEPRDYWGQGTQVTVSS" result_value=30
binder="P2X7PMP8D10 (VHH, family 5, 3; on phage or c-myc/His6-tagged in assays) VHH: EVQLVESGGGLVQPGGSLRLSCAASGSFFRVNNMAWYRQAPGKQRELVADITRGDRTNYADSVNGRFTISRDNVRNTVYLQMNGLKPEDTAVYYCYATIELGVLEPRDYWGQGTQVTVSS" result_value=18
binder="P2X7PMP1A8 (VHH, family 2; on phage or c-myc/His6-tagged in assays) VHH: EVQLVESGGGLVQTGGSLRLSCAASGFTLDDYAIAWFRQAPGKEREGVSILSSIGKTFYADSVKDRFSITADGAKTTVFLQMNSLKPGDTAIYYCVAGHFVYNDGAISLNTARGSGFWGQGAQVTVSS" result_value=21
binder="P2X7PMP6A11 (VHH, family 5, 2; on phage or c-myc/His6-tagged in assays) VHH: EVQLVESGGGLVQAGGSLRLSCAASGNFFRVNTMAWYRQAPGKQRELVADITRGDRTNYADTVNGRFTISRDNVRNTVYLQMNGLKPEDTAAYYCYARIELGVLEPRDYWGQGTQVTVSS" result_value=17
binder="P2X7PMP19E3 (VHH, family 15; on phage or c-myc/His6-tagged in assays) VHH: EMQLVESGGGLVQAGGSLRLSCAASPGTFSSFNMGWFRQTPGKEREFVAATSWSDISTYYADSVKGRFTISRDNAKNTVTLEMNSLKPEDTAVYYCAAGYYRGGYLGYRLTLEGSYDVWGQGTQVTVSS" result_value=8
